Where do these numbers come from? They come from ChEMBL document CHEMBL1156745.

Molecular target: Sodium/glucose cotransporter 2 (Homo sapiens)
Sequence (P31639 whole entry): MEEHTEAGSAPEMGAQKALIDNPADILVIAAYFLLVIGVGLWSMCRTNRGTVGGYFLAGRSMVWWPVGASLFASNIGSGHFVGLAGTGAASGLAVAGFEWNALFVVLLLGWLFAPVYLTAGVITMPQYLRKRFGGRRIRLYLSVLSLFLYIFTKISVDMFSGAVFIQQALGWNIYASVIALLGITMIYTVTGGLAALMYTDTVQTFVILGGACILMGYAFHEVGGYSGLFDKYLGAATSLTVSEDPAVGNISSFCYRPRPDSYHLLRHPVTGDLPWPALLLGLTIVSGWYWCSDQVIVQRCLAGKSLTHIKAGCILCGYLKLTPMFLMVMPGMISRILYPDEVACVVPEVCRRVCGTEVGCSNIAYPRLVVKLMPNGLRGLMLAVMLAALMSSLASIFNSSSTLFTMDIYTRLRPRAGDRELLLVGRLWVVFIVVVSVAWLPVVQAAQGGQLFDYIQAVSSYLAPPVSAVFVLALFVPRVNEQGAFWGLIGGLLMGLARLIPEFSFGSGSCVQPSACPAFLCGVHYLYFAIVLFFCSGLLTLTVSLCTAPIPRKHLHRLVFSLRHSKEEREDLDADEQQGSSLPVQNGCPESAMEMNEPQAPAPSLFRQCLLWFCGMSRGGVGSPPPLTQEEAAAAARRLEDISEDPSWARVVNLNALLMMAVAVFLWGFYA
Assay: Inhibition of human SGLT2 transfected in HEK293.ETN cells assessed as AMG uptake after 1.5 hrs by scintillation counting
pIC50: −log10 of the molar value.
Is pIC50 at least 8? Then Condition met. If not, Condition not met.

Please tell me: is the molecule Cc1cc(F)ccc1Cc1cc2c(cc1Cl)CO[C@]21O[C@H](CO)[C@@H](O)[C@H](O)[C@H]1O at or over 8 in terms of pIC50?
Condition not met

Please tell me: is the molecule CCOc1ccc(Cc2cc3c(cc2Cl)CO[C@]32O[C@H](CO)[C@@H](O)[C@H](O)[C@H]2O)c(C)c1 at or over 8 in terms of pIC50?
Condition not met

Please tell me: is the molecule OC[C@H]1O[C@]2(OCc3cc(Cl)c(Cc4ccc(OC(F)(F)F)cc4)cc32)[C@H](O)[C@@H](O)[C@@H]1O at or over 8 in terms of pIC50?
Condition met

Please tell me: is the molecule CCc1ccc(C2(c3cc4c(cc3Cl)CO[C@]43O[C@H](CO)[C@@H](O)[C@H](O)[C@H]3O)CC2)cc1 at or over 8 in terms of pIC50?
Condition met

Please tell me: is the molecule CCc1ccc(Cc2cc3c(cc2Cl)CO[C@]32O[C@H](CN)[C@@H](O)[C@H](O)[C@H]2O)cc1 at or over 8 in terms of pIC50?
Condition not met

---

Target: Sodium/glucose cotransporter 1 (Homo sapiens, UniProt P13866)
Sequence (P13866 whole entry): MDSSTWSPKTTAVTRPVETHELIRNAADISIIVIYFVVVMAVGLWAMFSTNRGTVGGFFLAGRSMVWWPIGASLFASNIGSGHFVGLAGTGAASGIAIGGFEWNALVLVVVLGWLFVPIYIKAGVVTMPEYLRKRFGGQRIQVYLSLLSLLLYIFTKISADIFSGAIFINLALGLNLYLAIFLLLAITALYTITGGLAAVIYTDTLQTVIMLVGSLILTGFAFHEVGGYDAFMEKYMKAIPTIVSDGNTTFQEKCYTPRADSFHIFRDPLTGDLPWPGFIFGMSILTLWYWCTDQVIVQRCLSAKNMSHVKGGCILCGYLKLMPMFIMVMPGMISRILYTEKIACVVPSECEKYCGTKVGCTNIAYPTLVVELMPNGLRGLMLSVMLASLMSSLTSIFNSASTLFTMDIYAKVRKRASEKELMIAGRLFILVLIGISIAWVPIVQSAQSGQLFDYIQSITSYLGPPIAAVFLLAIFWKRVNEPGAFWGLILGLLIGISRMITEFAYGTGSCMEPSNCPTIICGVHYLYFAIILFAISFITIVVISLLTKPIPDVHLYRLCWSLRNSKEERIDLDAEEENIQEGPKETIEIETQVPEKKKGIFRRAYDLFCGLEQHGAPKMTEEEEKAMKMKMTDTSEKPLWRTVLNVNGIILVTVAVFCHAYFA
Experiment: Inhibition of human SGLT1 transfected in COS-7 cells assessed as AMG uptake after 2 hrs by scintillation counting
PROPERTY_NAME: pIC50
Numbers only, as −log10 of the molar value.

For orientation, consider the following solved cases.
1. OC[C@H]1O[C@]2(OCc3cc(Cl)c(Cc4ccc(OC(F)(F)F)cc4)cc32)[C@H](O)[C@@H](O)[C@@H]1O
5.51
2. CCc1ccc(Cc2cc3c(cc2Cl)CO[C@]32O[C@H](COCC(F)(F)F)[C@@H](O)[C@H](O)[C@H]2O)cc1
4.85
3. CCOc1ccc(Cc2cc3c(cc2Cl)CO[C@]32O[C@H](CO)[C@@H](O)[C@H](O)[C@H]2O)cc1Cl
4.98
4. CCOc1ccc(Cc2ccc3c(c2)[C@]2(OC3)O[C@H](CO)[C@@H](O)[C@H](O)[C@H]2O)cc1
5.00
5. CCc1ccc(Cc2cc3c(cc2Cl)CO[C@]32O[C@H](CN=[N+]=[N-])[C@@H](O)[C@H](O)[C@H]2O)cc1
6.00
6. CCOc1ccc(Cc2cc3c(cc2Cl)CO[C@]32O[C@H](CO)[C@@H](O)[C@H](O)[C@H]2O)c(Cl)c1
5.00
7. CCOc1ccc(Cc2cc3c(cc2Cl)CO[C@]32O[C@H](CO)[C@@H](O)[C@H](O)[C@H]2O)cc1
5.89

Dear colleague, please send me the reported pIC50 for CCc1ccc(C(F)(F)c2cc3c(cc2Cl)CO[C@]32O[C@H](CO)[C@@H](O)[C@H](O)[C@H]2O)cc1 when you can.
5.80

---

Biological target: Sodium/glucose cotransporter 1 (Homo sapiens)
Sequence (P13866 whole entry): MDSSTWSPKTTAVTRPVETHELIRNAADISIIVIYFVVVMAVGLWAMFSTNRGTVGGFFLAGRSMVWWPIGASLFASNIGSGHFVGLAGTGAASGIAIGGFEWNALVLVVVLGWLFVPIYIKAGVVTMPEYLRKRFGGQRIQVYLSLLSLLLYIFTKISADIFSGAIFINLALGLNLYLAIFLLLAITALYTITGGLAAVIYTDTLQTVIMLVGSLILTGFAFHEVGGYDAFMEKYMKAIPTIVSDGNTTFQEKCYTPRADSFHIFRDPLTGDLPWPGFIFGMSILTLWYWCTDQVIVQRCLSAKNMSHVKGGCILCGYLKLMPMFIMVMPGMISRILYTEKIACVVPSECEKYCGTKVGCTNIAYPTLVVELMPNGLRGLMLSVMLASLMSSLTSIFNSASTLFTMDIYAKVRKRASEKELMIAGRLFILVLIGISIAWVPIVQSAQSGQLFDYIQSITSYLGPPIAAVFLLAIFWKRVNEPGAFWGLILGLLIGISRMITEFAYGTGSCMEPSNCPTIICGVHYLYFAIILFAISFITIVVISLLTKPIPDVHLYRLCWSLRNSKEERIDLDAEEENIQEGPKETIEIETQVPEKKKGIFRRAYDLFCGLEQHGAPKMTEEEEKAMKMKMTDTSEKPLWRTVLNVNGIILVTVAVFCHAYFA
Test: Inhibition of human SGLT1 transfected in COS-7 cells assessed as AMG uptake after 2 hrs by scintillation counting
PROPERTY_NAME: IC50

For orientation, consider the following solved cases.
1. CCOc1ccc(Cc2cc3c(cc2Cl)CO[C@]32O[C@H](CO)[C@@H](O)[C@H](O)[C@H]2O)c(C)c1
1000 nM
2. CC(C)c1ccc(Cc2cc3c(cc2Cl)CO[C@]32O[C@H](CO)[C@@H](O)[C@H](O)[C@H]2O)cc1
2500 nM
3. CCc1ccc(Cc2cc3c(cc2Cl)CO[C@]32O[C@H](CN)[C@@H](O)[C@H](O)[C@H]2O)cc1
> 100000 nM
4. COc1c(C)cccc1Cc1cc2c(cc1Cl)CO[C@]21O[C@H](CO)[C@@H](O)[C@H](O)[C@H]1O
1000 nM
5. Cc1cc(F)ccc1Cc1cc2c(cc1Cl)CO[C@]21O[C@H](CO)[C@@H](O)[C@H](O)[C@H]1O
1000 nM
6. CCc1ccc(C(=O)c2cc3c(cc2Cl)CO[C@]32O[C@H](CO)[C@@H](O)[C@H](O)[C@H]2O)cc1
43000 nM
7. COc1ccc(Cc2cc3c(cc2Cl)CO[C@]32O[C@H](CO)[C@@H](O)[C@H](O)[C@H]2O)cc1
200 nM

Attention now shifts to the item below.
Dear colleague, please send me the reported IC50 for CCOc1cc(F)ccc1Cc1cc2c(cc1Cl)CO[C@]21O[C@H](CO)[C@@H](O)[C@H](O)[C@H]1O when you can.
10000 nM

---

Give measured pIC50 for each item. Keep answers brief.
Molecular target: Sodium/glucose cotransporter 1 (Homo sapiens, UniProt P13866)
Sequence (P13866 whole entry): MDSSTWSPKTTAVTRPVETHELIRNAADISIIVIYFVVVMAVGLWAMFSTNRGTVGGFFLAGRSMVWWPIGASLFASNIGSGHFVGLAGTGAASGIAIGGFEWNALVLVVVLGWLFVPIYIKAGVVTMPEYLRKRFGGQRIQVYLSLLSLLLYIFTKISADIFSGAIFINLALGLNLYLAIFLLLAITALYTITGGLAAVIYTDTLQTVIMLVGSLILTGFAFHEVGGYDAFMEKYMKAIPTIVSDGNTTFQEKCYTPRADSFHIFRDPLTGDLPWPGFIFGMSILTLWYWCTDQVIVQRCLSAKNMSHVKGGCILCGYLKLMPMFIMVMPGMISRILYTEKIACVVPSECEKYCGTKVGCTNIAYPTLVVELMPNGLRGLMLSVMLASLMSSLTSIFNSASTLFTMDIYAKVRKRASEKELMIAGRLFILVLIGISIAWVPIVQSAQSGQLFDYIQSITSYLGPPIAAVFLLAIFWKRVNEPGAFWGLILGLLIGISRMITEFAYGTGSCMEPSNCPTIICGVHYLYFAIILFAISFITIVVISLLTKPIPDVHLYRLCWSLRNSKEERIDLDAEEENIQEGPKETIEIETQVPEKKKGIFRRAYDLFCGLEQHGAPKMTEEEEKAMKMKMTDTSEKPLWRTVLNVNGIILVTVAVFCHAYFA
Experiment: Inhibition of human SGLT1 transfected in COS-7 cells assessed as AMG uptake after 2 hrs by scintillation counting
Answers are plain numbers, as −log10 of the molar value.

For orientation, consider the following solved cases.
1. Cc1cccc(Cc2cc3c(cc2Cl)CO[C@]32O[C@H](CO)[C@@H](O)[C@H](O)[C@H]2O)c1F
5.82
2. CCc1ccc(Cc2cc3c(cc2F)CO[C@]32O[C@H](CO)[C@@H](O)[C@H](O)[C@H]2O)cc1
5.28
3. CCc1ccc(Cc2cc3c(cc2Cl)CO[C@]32O[C@H](CO)[C@@H](O)[C@H](O)[C@H]2O)cc1
6.22
4. COc1ccc(Cc2cc3c(cc2Cl)CO[C@]32O[C@H](CO)[C@@H](O)[C@H](O)[C@H]2O)c(C)c1
5.00
5. CCc1ccc(Cc2cc3c(cc2Cl)CO[C@]32O[C@H](COC)[C@@H](O)[C@H](O)[C@H]2O)cc1
5.57

Working through the 2 compounds below one at a time, give pIC50 for each.
1. CCc1ccc(C2(c3cc4c(cc3Cl)CO[C@]43O[C@H](CO)[C@@H](O)[C@H](O)[C@H]3O)CC2)cc1
2. CC(C)(C)c1ccc(Cc2cc3c(cc2Cl)CO[C@]32O[C@H](CO)[C@@H](O)[C@H](O)[C@H]2O)cc1

5.22
5.01
